All figures here come from ChEMBL document CHEMBL1154311.

Target: Tyrosine-protein phosphatase non-receptor type 11 (Homo sapiens)
Sequence (Q06124 whole entry): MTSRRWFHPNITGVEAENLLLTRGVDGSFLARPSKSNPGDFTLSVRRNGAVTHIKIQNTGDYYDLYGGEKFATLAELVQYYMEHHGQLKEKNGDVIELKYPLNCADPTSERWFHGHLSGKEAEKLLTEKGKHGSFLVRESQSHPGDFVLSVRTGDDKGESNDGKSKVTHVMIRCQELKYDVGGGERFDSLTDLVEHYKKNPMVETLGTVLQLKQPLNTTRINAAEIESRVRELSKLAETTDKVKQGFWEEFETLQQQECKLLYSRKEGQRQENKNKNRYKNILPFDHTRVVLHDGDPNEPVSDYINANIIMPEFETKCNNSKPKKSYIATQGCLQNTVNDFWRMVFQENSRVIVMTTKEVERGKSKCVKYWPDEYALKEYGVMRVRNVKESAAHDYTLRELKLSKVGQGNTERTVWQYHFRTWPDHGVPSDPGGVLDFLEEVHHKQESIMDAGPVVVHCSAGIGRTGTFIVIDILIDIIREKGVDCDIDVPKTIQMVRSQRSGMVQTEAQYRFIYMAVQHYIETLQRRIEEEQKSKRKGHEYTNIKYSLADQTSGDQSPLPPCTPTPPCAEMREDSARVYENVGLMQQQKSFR
recorded-metric: IC50

Query: I'm curious: which IC50 was measured for CCCCCCCCCCCCCCCc1cc(O[C@@H]2O[C@H](CO)[C@@H](O)[C@H](O)[C@H]2O)cc(O)c1C(=O)Oc1cc(C)c(C(=O)O)c(O)c1 [AQUASTATIN A] tested on Tyrosine-protein phosphatase non-receptor type 11 (Homo sapiens)?
Response: > 44 µM
